System: UACC-62 melanoma
Assay: NCI tumour cell line growth inhibition, 48 h
outcome_measure: TGI

compound	result
OCC(O)C(O)C(O)c1nn(-c2ccccc2)c2nc3cc(Cl)c(Cl)cc3nc12 (configuration not stated)	> 100 µM
CCOC(=O)C(=CN1CCNC1=S)C(=O)OCC	> 100 µM
O=C(N/N=C(/COc1ccccc1Cl)N=Cc1ccncc1)c1ccncc1	> 100 µM
CN(C)CCSCCO	> 100 µM
O=C(Nc1ccc(Br)cc1)C(=O)C(C(=O)c1ccccc1F)C1OC(=O)c2ccccc21 (configuration not stated)	28.1 µM
Cc1cc(C)c(S(=O)(=O)N(CCc2cccc(Br)c2)Cc2ccc(-c3cccc(S(C)(=O)=O)c3)cc2)c(C)c1	> 100 µM
COC(=O)[C@H](C)NC(=O)[C@@H](OC)[C@@H]1Cc2cc3cc(OC4CC(OC5CC(O)C(O)C(C)O5)C(O)C(C)O4)c(C)c(O)c3c(O)c2C(=O)[C@H]1OC1CC(OC2CC(OC3CC(C)(O)C(O)C(C)O3)C(O)C(C)O2)C(O)C(C)O1 (some centres not stated)	0.171 µM
COC([C@@H](OC(=O)c1ccccc1)[C@H](OC(=O)c1ccccc1)C(O)COC(=O)c1ccccc1)n1cc(C)c(=O)[nH]c1=O (some centres not stated)	56.3 µM
O=[N+]([O-])c1cccc(Cl)c1Oc1ccc(S(=O)(=O)/N=C(\NO)Nc2ccc(Cl)cc2)cc1	25.5 µM
CCOC(=O)C(NC(=O)CC)(Nc1ccc(F)c(Cl)c1)C(F)(F)F (configuration not stated)	> 100 µM
CNC1=C(C(=O)OC)SC(c2ccccc2)(c2ccccc2)SC1	> 100 µM
CC12CCC(C(=Nc3cc(C(F)(F)F)cc(C(F)(F)F)c3)C1=O)C2(C)C (configuration not stated)	> 100 µM
N=c1oc2ccccc2cc1-c1nc2ccccc2c(=O)[nH]1	> 100 µM
COC1(c2cccs2)c2ccccc2C(OC)(c2cccs2)c2ccccc21 (configuration not stated)	> 100 µM
COc1ccc([C@]23CCN4COC[C@@H]([C@H]42)C2(CC3)OCC(C)(C)CO2)cc1OC	> 100 µM
Cc1cc(N(CCC#N)CCC#N)ccc1/C=C1\SC(=S)NC1=O	> 100 µM
COc1ccc(Cn2cc3c(c2-c2cc(OC)c(OC)c(OC)c2)CCc2cnoc2-3)cc1N	> 86.9 µM
N#CC[N+]1(Cc2ccccn2)CCCC1	> 100 µM
CCOc1nccc2c1nc(-c1nonc1N)n2CC	> 25 µM
N[C@H](CCC(=O)NCP(=O)(O)O)C(=O)O	> 100 µM
O=C1CS[C@@](CC(c2ccc(Cl)cc2)c2ccc(Cl)cc2)(c2ccc(Cl)cc2)N1	63.1 µM
COc1cc2c3c(n(CCCBr)c(=O)c2cc1OC)-c1ccc(F)cc1C3=O	24.5 µM
